Tested on: HCT-15
Assay: NCI tumour cell line growth inhibition, 48 h
Where a name gives a salt, the structure may show the parent alone.
Endpoint: GI50 (µM)
I only need the number, in µM, no unit after it.

Task: Please indicate recorded GI50 of CC1(C)[C@@H]2C[C@H]1C(Cc1ccc(C[C@H]3c4cc(-c5ccccn5)ncc4[C@H]4C[C@@H]3C4(C)C)cc1)c1cc(-c3ccccn3)ncc12 (stereo partly drawn) measured with HCT-15.
Output: 2.9

Task: Please indicate recorded GI50 of C=C1CC[C@H](O)C(C)(C)[C@@H]1CC/C(C)=C/CC/C=C(\C)CC/C=C(\C)CCC=C(C)C measured with HCT-15.
Output: 87.3

Task: Please indicate recorded GI50 of CN1CCC(CN2c3ccccc3Sc3ccccc32)C1 (stereo not drawn) [METHDILAZINE HYDROCHLORIDE] measured with HCT-15.
Output: 16.2

Task: Please indicate recorded GI50 of Cc1ccc(Nc2nc(O)c3[nH]cnc3n2)cc1CO measured with HCT-15.
Output: 15.6

###

Test system: M14
Experiment: NCI tumour cell line growth inhibition, 48 h
Activity calls are given as the source filed them. Cut-off read from the data, not from the text of the source: active = GI50 up to about 1.1 µM and inactive = higher.
Endpoint: GI50

Task: Note down GI50 recorded for CN(C)CCNC(=O)c1cc([N+](=O)[O-])cc2ccc(-c3ccccc3)nc12
Output: 33.7 µM (inactive)

Task: Note down GI50 recorded for COc1cc2cnc3c4ccccc4ccc3c2cc1OC
Output: > 100 µM (inactive)

Task: Note down GI50 recorded for O=C(CCCCCCCCCCc1ccccc1)C1=C(O)CC(O)CC1=O (stereo not drawn)
Output: 59.8 µM (inactive)

###

Tested on: NCI-H226
Assay: NCI tumour cell line growth inhibition, 48 h
Active and inactive are the calls of the source. Cut-off read from the data, not from the text of the source: active = GI50 up to about 1.1 µM and inactive = higher.
Reply using exactly one outcome from y (active), n (inactive)

Task: Per the records of this test, what outcome belongs to NC1CCCCC1.O=P(O)(O)C1(P(=O)(O)O)CC1 ?
Output: n

Task: Per the records of this test, what outcome belongs to CCCCCn1cc2c3c(cccc31)C1C=C(C)CN(C)[C@@H]1C2.Cc1ccc(C(=O)OC(C(=O)O)C(OC(=O)c2ccc(C)cc2)C(=O)O)cc1 (stereo unspecified) ?
Output: n

Task: Per the records of this test, what outcome belongs to COc1ccc(-c2c(C#N)c(-c3ccc(C)cc3)n(NS(=O)(=O)c3ccccc3)c(=O)c2C#N)cc1 ?
Output: n

Task: Per the records of this test, what outcome belongs to CC(C)C(=S)N(C)O ?
Output: n

Task: Per the records of this test, what outcome belongs to CC(C)(C)OC(=O)N1CC(C)(C)N2C(=O)C3(CCCO3)C12 (stereo unspecified) ?
Output: n

Task: Per the records of this test, what outcome belongs to NC(=O)C1CCCN1Cc1ccc2c(c1)OCO2 (stereo unspecified) ?
Output: n

Task: Per the records of this test, what outcome belongs to O=c1[nH]c(Nc2nc3ccccc3[nH]2)nc(O)c1-c1ccccc1 ?
Output: n

Task: Per the records of this test, what outcome belongs to NCCCSCC(=O)O ?
Output: n

Task: Per the records of this test, what outcome belongs to CC(C)N1CCC2(CC1)NNc1ncccc1-n1cccc12 ?
Output: n

Task: Per the records of this test, what outcome belongs to CN(C)CCNC(=O)c1cccc2nc3ccc4cccnc4c3nc12 ?
Output: y

Task: Per the records of this test, what outcome belongs to Cc1cc2c(C)n(Cc3ccccc3Cl)nc2c(C(=O)O)c1C ?
Output: n

###

System: DLD-1
Experiment: NCI tumour cell line growth inhibition, 48 h
Activity calls are given as the source filed them. Rule as the data show it: active = GI50 up to about 1.1 µM and inactive = higher.
Reply using exactly one outcome from 1 for active, 0 for inactive

Task: Per the records of this test, what outcome belongs to CNC(=O)NCCN1N=C(C)/C(=C\c2ccccc2)CC1=O ?
Output: 0

Task: Per the records of this test, what outcome belongs to C/C(=C1/CCC/C(=C(/C)c2ccccc2)C1=O)c1ccccc1 ?
Output: 0

Task: Per the records of this test, what outcome belongs to O=C(CCCCCCCCCCc1ccccc1)C1=C(O)CC(O)CC1=O (stereo unspecified) ?
Output: 0

Task: Per the records of this test, what outcome belongs to NCCCNC(=O)c1csc(NC(=O)c2csc(NC(=O)CCCN)n2)n1 ?
Output: 0

Task: Per the records of this test, what outcome belongs to COC(=O)/C(=N/NC(N)=O)C(C(=O)OC)C(=O)C(=O)Nc1ccc(Cl)cc1 (stereo unspecified) ?
Output: 0

Task: Per the records of this test, what outcome belongs to CN[C@@H](C)[C@H](N)c1ccccc1 ?
Output: 0

Task: Per the records of this test, what outcome belongs to CCOC(=O)NC(=O)c1cn(CCCCCCCCCCC(=O)N2CCN(CCn3cc(C(=O)NC(=O)OCC)c(=O)[nH]c3=O)CC2)c(=O)[nH]c1=O ?
Output: 0

Task: Per the records of this test, what outcome belongs to CC(C)(C)C(=O)ON1N=NC2C3CC(OCc4ccccc4)(OCc4ccccc4)C(O3)C21 (stereo unspecified) ?
Output: 0

Task: Per the records of this test, what outcome belongs to CC(C)N1CCC2(CC1)NNc1ncccc1-n1cccc12 ?
Output: 0

Task: Per the records of this test, what outcome belongs to O=S(=O)(O)C(F)(F)C(F)(F)C(F)(F)C(F)(F)F ?
Output: 0

Task: Per the records of this test, what outcome belongs to C[C@]12CC(C=O)C(=O)C(O)=C1CC[C@@H]1C2CC[C@@]2(C)C1CC[C@]2(C)O (stereo partly specified) ?
Output: 0

Task: Per the records of this test, what outcome belongs to COC1=C2C[C@@H](C)C[C@@H](OC)[C@@H](O)[C@H](C)/C=C(\C)[C@@H](OC(N)=O)[C@H](OC)/C=C\C=C(/C)C(=O)NC(=CC1=O)C2=O ?
Output: 1

Task: Per the records of this test, what outcome belongs to CC1=CC2CCC1(C)C/C2=C(/C)OC=O (stereo unspecified) ?
Output: 0

Task: Per the records of this test, what outcome belongs to N#C/C(=C\c1ccncc1)c1csc2ccccc12 ?
Output: 0

Task: Per the records of this test, what outcome belongs to COC(=O)C1Cc2c(n(Cc3ccccc3)c3ccccc23)C(CCC(=O)O)N1C(C)C (stereo unspecified) ?
Output: 0

Task: Per the records of this test, what outcome belongs to CCN(CC)C(=O)Cc1[nH][nH]c(=O)c1C(=O)N(CC)CC ?
Output: 0

Task: Per the records of this test, what outcome belongs to CC(C)(C)OC(=O)N1CC(C)(C)N2C(=O)C3(CCCO3)C12 (stereo unspecified) ?
Output: 0

Task: Per the records of this test, what outcome belongs to CCOC(=O)CNC(=O)OCc1ccccc1 ?
Output: 0

Task: Per the records of this test, what outcome belongs to O=C(O)/C=C/c1nc2ccccc2c(=O)o1 ?
Output: 0

Task: Per the records of this test, what outcome belongs to CN(C)/C=N\c1ccn(CCO)c(=O)n1 ?
Output: 0

Task: Per the records of this test, what outcome belongs to O=C(NC(=O)c1cn(CCN2CCN(C(=O)NCCCCCCNC(=O)N3CCN(CCn4cc(C(=O)NC(=O)OCc5ccccc5)c(=O)[nH]c4=O)CC3)CC2)c(=O)[nH]c1=O)OCc1ccccc1 ?
Output: 0

###

Test system: LXFL 529
Experiment: NCI tumour cell line growth inhibition, 48 h
Active and inactive are the calls of the source. Rule as the data show it: active = GI50 up to about 1.1 µM and inactive = higher.
Reply using exactly one outcome from YES = active, NO = inactive

Task: Per the records of this test, what outcome belongs to COc1ccc(/C=N/NC(=O)C2=C(N)N(c3ccccc3)C(=C(C#N)C#N)S2)cc1 ?
Output: NO

Task: Per the records of this test, what outcome belongs to CCOC(=O)NC(=O)c1cn(CCCCCCCCCCC(=O)N2CCN(CCn3cc(C(=O)NC(=O)OCC)c(=O)[nH]c3=O)CC2)c(=O)[nH]c1=O ?
Output: NO

Task: Per the records of this test, what outcome belongs to CCOc1cccc2c1N[S@@](=O)S2 ?
Output: NO

Task: Per the records of this test, what outcome belongs to COc1cc(/C=C/c2csnn2)cc(OC)c1OC ?
Output: NO

Task: Per the records of this test, what outcome belongs to COC(=O)[C@@H]1C(=O)O[C@@H](c2ccc(OC)c(OC)c2OC)[C@@H]1C(=O)OC.COC(=O)[C@H]1C(=O)O[C@@H](c2ccc(OC)c(OC)c2OC)[C@@H]1C(=O)OC ?
Output: NO

Task: Per the records of this test, what outcome belongs to CN[C@@H](C)[C@H](N)c1ccccc1 ?
Output: NO

Task: Per the records of this test, what outcome belongs to CC1=C(c2ccccc2)CON(c2ccccc2)C1 ?
Output: NO

Task: Per the records of this test, what outcome belongs to CC(=O)NC1=C(NCC(C)C)C(=O)c2ccccc2C1=O ?
Output: NO

Task: Per the records of this test, what outcome belongs to Cc1ccc(S(=O)(=O)OCCn2cnc3nc(NC(=O)c4ccccc4)[nH]c(=O)c32)cc1 ?
Output: NO

Task: Per the records of this test, what outcome belongs to Cc1c2cc[n+](COC(=O)c3ccccc3)cc2c(C)c2c1[nH]c1ccccc12 ?
Output: YES

Task: Per the records of this test, what outcome belongs to COc1ccc(N2C(Cl)C(=O)C2c2c[nH]c3ccccc23)cc1 (centres undefined) ?
Output: NO

Task: Per the records of this test, what outcome belongs to CCOC(=O)C1=C(Nc2ccccc2)SCC1=O ?
Output: NO

Task: Per the records of this test, what outcome belongs to CN(C(=O)c1ccccc1)c1ccc2c(c1)C(=O)c1ccccc1C2=O ?
Output: NO

Task: Per the records of this test, what outcome belongs to Cc1ccc(NP(=O)(Oc2ccccc2)N(CCCl)CCCl)cc1 (centres undefined) ?
Output: NO

Task: Per the records of this test, what outcome belongs to CN/N=C(\C(=O)Nc1ccc(C)c(C)c1)C(C(=O)OC)c1nc2ccc([N+](=O)[O-])cc2nc1O (centres undefined) ?
Output: NO

Task: Per the records of this test, what outcome belongs to CC1=CC2CCC1(C)C/C2=C(/C)OC=O (centres undefined) ?
Output: NO

Task: Per the records of this test, what outcome belongs to CC(=O)O/N=C/c1ncccc1OC(C)=O ?
Output: NO

Task: Per the records of this test, what outcome belongs to O=C(Nc1cccc(Cl)c1)C(=O)C(C(=O)c1ccc2ccccc2c1)C1OC(=O)c2ccccc21 (centres undefined) ?
Output: NO

Task: Per the records of this test, what outcome belongs to COc1ccc2c3c([nH]c2c1[N+](=O)[O-])C(C)N(Cc1ccc([N+](=O)[O-])cc1)CC3 (centres undefined) ?
Output: NO
